- protocol_text: Pharmacokinetics test (blood concentration) in mice and rats
- Type: in vivo, ICR mice and SD rats
- condition_parameters: plasma; 10.0 mg/kg, po; n = 3
assay_metric: AUC (ng·h/mL)

> print(dat)
                                   compound  assay.metric  display.unit  experimental.value
1  CN(C)CCCOc1ccc2cc(/C=C/c3ccc(N(C)C)cc3)oc2c1.Cl [Example 23]           AUC       ng·h/mL                 472

====

- protocol_text: Pharmacokinetics test in mice (dose-dependent)
- Type: in vivo, ICR mice
- condition_parameters: ICR, mouse, plasma, 100 mg/kg, po
assay_metric: Tmax (h)

> print(dat)
                         chemical.structure  experimental.value
1  CN(C)CCCOc1ccc2cc(/C=C/c3ccc(N(C)C)cc3)oc2c1                   4

====

- protocol_text: Pharmacokinetics test in mice (dose-dependent)
- Type: in vivo, ICR mice
- condition_parameters: ICR, mouse, plasma, 100 mg/kg, po
- Procedure: Two 6 week-old ICR mice (weight: approximately 25 g) were used per test group. A solution prepared by dissolving the compound of Example 3 in distilled water was administered to each experimental animal. […] 50 μL of plasma was placed in a 2.0 mL tube with a cap (Eppendorf Co.) and acidified by adding 20 μL of 0.1% formic acid thereto. […] The residue was re-dissolved in 50 μL of mobile phase and 5 μL of the resulting solution was injected into LC/MS and analyzed. […]
assay_metric: Cmax (ng/mL)

> print(dat)
                         chemical.structure  assay.metric  experimental.value
1  CN(C)CCCOc1ccc2cc(/C=C/c3ccc(N(C)C)cc3)oc2c1          Cmax                 378
